# System: HL60 leukemia cells and A549 lung cancer cells
# Test Summary: Cell cytotoxicity studies, summary over HL60 and A549
# Type: cell-based
# Run Conditions: dark
# Experimental: The HL60 promyelocytic leukemia cell line was obtained from ATCC and cultured in IMDM media (Invitrogen; Carlsbad, Calif.) supplemented with 10% serum supreme (Lonza; Basel, Switzerland) and penicillin/streptomycin at 37° C. with 5% CO2. The A549 cell line was donated and cultured in DMEM supplemented with glutamax, 10% serum supreme, and penicillin/streptomycin at 37° C. with 5% CO2. […] The resulting luminescence was measured using the SpectraFluor Plus Plate Reader (Tecan). […]
Measurement Name: IC50

Value lookup for IC50; key = Cc1ccc2c3nccnc3c3ccc(C)nc3c2n1.F[P-](F)(F)(F)(F)F.F[P-](F)(F)(F)(F)F.[Ru+2].c1ccc(-c2ccccn2)nc1.c1ccc(-c2ccccn2)nc1 [Compound 5, Ru(bpy)2dmdpq]
> 100 µM

Where do these numbers come from? They come from patent US9290528B1.
